Sourced from ChEMBL document CHEMBL1142088

Test system: Pseudomonas aeruginosa
Assay: Antibacterial activity against Pseudomonas aeruginosa FE53 with inactivated mexZ gene by microdilution method
Type: functional
PROPERTY: MIC (µg/mL)

- O=C(O)c1cn(C2CC2)c2cc(N3CCNCC3)c(F)cc2c1=O: 1
- CCN[C@@H]1C[C@H](N)[C@@H](O[C@H]2OC(CN)=CC[C@H]2N)[C@H](O)[C@H]1O[C@H]1OC[C@](C)(O)[C@H](NC)[C@H]1O: 8
- NC[C@H]1O[C@H](O[C@H]2[C@H](O)[C@@H](O[C@H]3O[C@H](CO)[C@@H](O)[C@H](N)[C@H]3O)[C@H](N)C[C@@H]2N)[C@H](O)[C@@H](O)[C@@H]1O: 128
- NCC[C@H](O)C(=O)N[C@@H]1C[C@H](N)[C@@H](O[C@H]2O[C@H](CN)[C@@H](O)[C@H](O)[C@H]2O)[C@H](O)[C@H]1O[C@H]1O[C@H](CO)[C@@H](O)[C@H](N)[C@H]1O: 8
- CO/N=C(\C(=O)N[C@@H]1C(=O)N2C(C(=O)[O-])=C(C[N+]3(C)CCCC3)CS[C@H]12)c1csc(N)n1 [CEFEPIME]: 16
- NC[C@H]1O[C@H](O[C@H]2[C@H](O)[C@@H](O[C@H]3O[C@H](CO)[C@@H](O)[C@H](N)[C@H]3O)[C@H](N)C[C@@H]2N)[C@H](N)C[C@@H]1O: 1
